Experimental Details: yeast display, Sf9 membrane polyspecificity reagent, FACS + sequencing; frameworks hold sequencing errors
Measurement Name: polyreactivity (PSR sort gate)

Solved entries (count: 8):
[
  {
    "Sequence Input": "QVQLVESGGGLVQAGGSLRLSCAASGSTFYFNAMGGYRQSPGKERELVAVIDGSGGFTYYADSVKGRFTISRDNAKNTVYLQMNSLKQEVTAVYDCNADLVYNTFLYSGGDEYDYWGQGTQVTVSS",
    "Endpoint Value": "high polyreactivity"
  },
  {
    "Sequence Input": "QVQLVESGGGLVQAGGSLRLSCAASGRTFRPYAMGWYRQAPGKERELVAVITSGDSTSYADSVKGRFTISRDNAKNTVYLQMNSLKPEDTAVYYCAADSYSGYNYWGQGTQVTVSS",
    "Endpoint Value": "low polyreactivity"
  },
  {
    "Sequence Input": "QVQLVESGGGLVQAGGSLRLSCAASGSNLGLYAMGWYRQAPGKERELVAAISSGGSTYYADSVKGRFTISRDNAKNTVYLQMNSLKPEDTAVYYCAADLSLSRVVFGDYDYWGQGTQVTVSS",
    "Endpoint Value": "low polyreactivity"
  },
  {
    "Sequence Input": "QDQLVESGGGLVQAGASLRLICAASGFIFPSYAMGWYRKAPGKERELVAAISWTGGTYYADSVKGRFTISRDNAKNTVYLQMNSLKPEDTAVYYGAVRYKRKGSGYRTNAYDYWGQGTQVSVSS",
    "Endpoint Value": "high polyreactivity"
  },
  {
    "Sequence Input": "QVQLVESGGGLVQAGGSLRLSCAASGITFGYNAMGWYRQAPGTEREFVAGISWSGGSTYYADSVKGRFTISRDNAKNTVYLQMNSLKPEDTAVYYCAKLARGGWYGGGRSLSYGYWGQGTQVTVSS",
    "Endpoint Value": "high polyreactivity"
  },
  {
    "Sequence Input": "QVQLVESGGGLVQAGGSLRLSCAASGSIFGFYAMGWYRQAPWKERELVAAINSNSGSTYYADSVKGRFTISRDNAKNTVYLQMNSLKPEDTAVYYCAARSPYVTPQGFNYCGQGTQVTVSS",
    "Endpoint Value": "high polyreactivity"
  },
  {
    "Sequence Input": "QVQHVESGGGLVQAGVSLRLSCAASGFTFGSNAMGRYRPAPGKERELVAAINYSGVRTYYADSVKGRFTISRDNAKNTVYLQMNSLKPEDTAVYYCAKQRSKPNSFDYWGQGTQVTVSS",
    "Endpoint Value": "high polyreactivity"
  },
  {
    "Sequence Input": "QVQLVESGGGLVQAGGSLRLRCAASGRIFDANAMGWYRQAPGKERELVAAITSRGGTTFYADSVKGRFTISRDNEKNTDYLQMNSLKPEDTAVYYCAADRYYFYRRYDYWGQGTQVTVSS",
    "Endpoint Value": "high polyreactivity"
  }
]

The reported value for `QVQLGESGGGLVQAGGSLRLSCAASGSISTYYPMGWYRQATGKERELVASITSRASTNYADSVKGRFTISRDNAKNTVYLQMNSLKPEDTAGNYCNADQRDYGSYVTKLDYWGQGTQVTVSS` in terms of polyreactivity (PSR sort gate) is low polyreactivity

Query `QVQLVESGGGLVHAGGSLRLSCAASGSIFGIYTMGWYRQAPGKERELVARINLSGGITYYADSVKGRFKISRDNAKNTVYLQMNSLKPEDTAVYYCNARTVNFPYDYWGQGTQVTVSS` yields polyreactivity (PSR sort gate) of low polyreactivity

The measured polyreactivity (PSR sort gate) associated with `QVQLVESGGGLVQAGGSLRLSCAASGSTFPWNAMGWYRQAPGKERELVAAINYGNGSTYYADSVKGRFTISRDNAKNTVYLQMNSLKPEDTAVYYCNADYTGTRTDSVTPEYEYWGQGTQVTVSS` reads low polyreactivity

Recorded result, `QVQLVESGGGLVQAGGSLRLSCAASGSIFKYYAMGWYRQAPGKERELVAAITWSGTRTYYADSVKGRFTISRDNAKNTVYLQMNSLKPEDTAVYYCNAPRYLYSAGRFNYWGQGTQVTVSS` , polyreactivity (PSR sort gate): high polyreactivity

Measured polyreactivity (PSR sort gate) of `QVQLVESGGGLVQAGGSLRLSCAASGSTFSDNAMGWSRQAPGKERELVATIDYDGSTYYADSVKGRFTISRDNAKNTVYLQMNSLRTEDTAVYYCAADVYQVPGPYWSRTYEYDYWGQGTQVTVSS` : low polyreactivity
